meta.source: BindingDB's records for doi:10.1021/jm960305h

Assay: Binding affinity against sigma receptor using radioligand ([3H](+)-pentazocine) binding assay
quantity: IC50 (µM)
Provide only the numeric value, understood in µM.

Query: Tell me the measured IC50 of c1ccc(CCCN2CCCN(CCOC(c3ccccc3)c3ccccc3)CC2)cc1 , please.
Response: 0.026

Query: Tell me the measured IC50 of c1ccc(CCCNCCCCNCCOC(c2ccccc2)c2ccccc2)cc1 , please.
Response: 1.05

Query: Tell me the measured IC50 of CNCCN(C)CCOC(c1ccccc1)c1ccccc1 , please.
Response: 0.231

Query: Tell me the measured IC50 of C[C@@H]1CN(CCOC(c2ccc(F)cc2)c2ccc(F)cc2)[C@@H](C)CN1CCOC(c1ccc(F)cc1)c1ccc(F)cc1 , please.
Response: 3.64

====

Assay: Binding affinity against sigma receptor using radioligand ([3H](+)-pentazocine) binding assay
Each entry below carries its recorded IC50.
Provide only the numeric value, understood in nM.

smiles_entry | IC50 (nM)
c1ccc(CCCN2CCNCC2)cc1 | 109
C[C@@H]1CN(CCCc2ccccc2)[C@@H](C)CN1 | 8.5
c1ccc(CCCN2CCN(CCCc3ccccc3)CC2)cc1 | 0.5

Query: Tell me the measured IC50 of C[C@@H]1CN(CCOC(c2ccccc2)c2ccccc2)[C@@H](C)CN1CCCc1ccccc1 , please.
Response: 8.6

====

Test: Binding affinity against sigma receptor using radioligand ([3H](+)-pentazocine) binding assay
Each entry below carries its recorded IC50.
Provide only the numeric value, understood in nM.

Previously resolved entries follow.
compound | units | quantitative_readout
C[C@@H]1CN(CCOC(c2ccc(F)cc2)c2ccc(F)cc2)[C@@H](C)CN1 | nM | 65
CN(CCCc1ccccc1)CCN(C)CCOC(c1ccccc1)c1ccccc1 | nM | 34
c1ccc(CCCN2CCCCC(NCCOC(c3ccccc3)c3ccccc3)C2)cc1 (configuration not stated) | nM | 78
c1ccc(CCCNC2CCCCN(CCOC(c3ccccc3)c3ccccc3)C2)cc1 (configuration not stated) | nM | 83
C[C@@H]1CN(CCCc2ccccc2)[C@@H](C)CN1CCCc1ccccc1 | nM | 8.5
c1ccc(C(OCCN2CCNCC2)c2ccccc2)cc1 [1-(2-Benzhydryloxy-ethyl)-piperazine] | nM | 1480
Fc1ccc(C(OCCN2CCNCC2)c2ccc(F)cc2)cc1 | nM | 965
C[C@@H]1CN(CCOC(c2ccccc2)c2ccccc2)[C@@H](C)CN1CCOC(c1ccccc1)c1ccccc1 | nM | 4000
c1ccc(CCCN2CCCCN(CCOC(c3ccccc3)c3ccccc3)CC2)cc1 | nM | 180

Now consider a different compound.
Query: Tell me the measured IC50 of C[C@@H]1CN(CCOC(c2ccccc2)c2ccccc2)[C@@H](C)CN1 , please.
Response: 67
